Hello, the source for this data is patent US20200231659A1, in case you need it.

Documented IC50 across a set of binders
# ASSAYED_SYSTEM: T1, cystic fibrosis transmembrane conductance regulator (CFTR) inhibitory factor (Cif) (Pseudomonas aeruginosa)
# T1 chain: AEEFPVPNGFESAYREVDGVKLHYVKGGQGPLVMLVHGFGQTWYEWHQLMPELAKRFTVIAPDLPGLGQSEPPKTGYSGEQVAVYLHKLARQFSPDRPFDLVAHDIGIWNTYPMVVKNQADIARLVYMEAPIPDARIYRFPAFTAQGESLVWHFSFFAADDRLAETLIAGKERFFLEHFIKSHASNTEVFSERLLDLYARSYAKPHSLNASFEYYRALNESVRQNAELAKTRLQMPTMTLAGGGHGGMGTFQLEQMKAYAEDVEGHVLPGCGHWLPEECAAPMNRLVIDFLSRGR
# RUN_DESCRIPTION: sandwich ELISA
Express it in µg/mL; write the number only.

Here is how some binders turned out for IC50.
INSERT INTO assay_data (binder, unit_tag, measured_number) VALUES
  ('VHH CLONE 108 (VHH) VHH: EVQLVESGGGLVQPGGSLRLSCEATGNFDDRGIGWFRQAPGKEREGIACITTRGRTHYAESVEGRFTISTDIANNAVYLQMNSLKPEDTAVYYCAKAIRLTTDRTQCVAFPGVSWGRGTQVTVSS', 'µg/mL', 0.0098),
  ('VHH CLONE 116 (VHH) VHH: EVQLVESGGGLVQPGGSLRLSCTASGSILKIYTMDWYRQAPGKQRDLVATVSSRGDTDYTDSVKGRFTISRDDAKNTAYLQMSSLKPEDTAVYYCNFYIQSRTAPFNDYWGQGTQVTVSS', 'µg/mL', 0.0312),
  ('VHH CLONE 205 (VHH) VHH: DVQLQASGGGLVQPGGSLRLSCAATGSTDRIAFMGWYRQAPGKLRELVAGITSDGRTNYADDVDVSGRFTISRDSAKNMVYLQMNSLKPEDTAVYYCNADITLAMGGLRVYWGQGTQVTVSS', 'µg/mL', 0.0207);

Please turn your attention to the following entry.
# input What value of IC50 has been reported for the following binder? VHH CLONE 103 (VHH) VHH: EVQLMESAGGLVRPGGSLRLSCVASGSIGDIYSMGWYRQAPGKQRELVATVGAGGLTDYGDSVLGRFTISRDKTKGTVSLEMNSLKPEDTAVYYCNADVSIGPTGLRVYWGQGTQVTVSS
# output 0.0168
